- Tested on: Bacillus cereus
- ASSAY_EXPLANATION: Antibacterial activity against Bacillus cereus at 100 ug/ml after 24 hr by agar well diffusion method
- Type: functional
- RECORDED_CONDITIONS: read-out: IZ
Label Satisfied when zone of inhibition at 100 µg/mL is at or above 20 mm; anything below gets Not satisfied.

Some solved entries appear below for comparison.
{"COMPOUND": "Cc1nn(-c2ccccc2)c2nc(-n3[nH]c(=O)c(C#N)c3-c3ccc(Cl)cc3)nc(-c3ccc(Cl)cc3)c12", "CATEGORY_LABEL": "Satisfied"}
{"COMPOUND": "Cc1nn(-c2ccccc2)c2c1C(c1ccc(Cl)cc1)n1c(s/c(=C\\c3ccc(C#N)cc3)c1=O)=N2 (stereo not given)", "CATEGORY_LABEL": "Satisfied"}
{"COMPOUND": "Cc1nn(-c2ccccc2)c2nc(S)nc(-c3cccs3)c12", "CATEGORY_LABEL": "Not satisfied"}
{"COMPOUND": "COc1ccc(C(=O)CSc2nc(-c3ccc(Cl)cc3)c3c(C)nn(-c4ccccc4)c3n2)cc1", "CATEGORY_LABEL": "Not satisfied"}
{"COMPOUND": "Cc1nn(-c2ccccc2)c2nc(S)nc(-c3ccc(Cl)cc3)c12", "CATEGORY_LABEL": "Satisfied"}

Test whether the compound Cc1nn(-c2ccccc2)c2nc(-n3[nH]c(=O)c(C#N)c3-c3cccs3)nc(-c3ccc(Cl)cc3)c12 records zone of inhibition at 100 µg/mL of 20 mm or higher.
Not satisfied

Test whether the compound Cc1nn(-c2ccccc2)c2nc(NN)nc(-c3ccc(Cl)cc3)c12 records zone of inhibition at 100 µg/mL of 20 mm or higher.
Satisfied
